protocol.summary: Primary qHTS for inhibitors of nuclear receptor binding SET domain protein 2 (NSD2) in an RCH-ACV wild type WT cells (2C) (AID 1645877); also: nearly all actives have a fitted effect of over 70% in size
test.conditions: RCH-ACV (leukaemia line) NSD2 WT (2C) viability, CellTiter-Glo, 72 h; series mostly up to 44.9 µM
Inconclusive results are not listed. The source made the active and inactive calls. Calls follow the shape of the dose curve; as a rule, active = well fitted inhibition curve with a large enough effect; inconclusive = small, poorly fitted or top-dose-only effect; inactive = no such curve, though single readings can be large or run the other way.
Outcomes: T = active, F = inactive

>>> category_label("CC(C)(O)CNc1ncc(-c2ccnc(Nc3ccncc3)n2)c(CC2CC2)n1")
"T"
>>> category_label("COc1cc(C(=O)NC(N)=Nc2ccc(C)c(NC(=O)c3ccc(-c4ccccc4)cc3)c2)cc(OC)c1OC")
"T"
>>> category_label("N=C1S/C(=C\\c2ccc(-c3ccc4c(c3)C(=O)NC4=O)o2)C(=O)N1c1ccc(Br)cc1")
"F"
>>> category_label("C[C@H]1CC2[C@@H]3CCC4=CC(=O)C=C[C@]4(C)[C@@]3(F)[C@@H](O)C[C@]2(C)[C@@]1(O)C(=O)CO (stereo partly drawn)")
"T"
>>> category_label("c1ccc(CNCc2ccc(CN3CCCNCCNCCCNCC3)cc2)nc1")
"F"
>>> category_label("C=C1CCC2[C@](C)(CO)C(O)CC[C@]2(C)C1C/C=C1/C(=O)OCC1O (stereo partly drawn)")
"T"
>>> category_label("O=C1CC[C@H](N2Cc3c(OCc4ccc(CN5CCOCC5)cc4)cccc3C2=O)C(=O)N1")
"T"
>>> category_label("COc1ccc(-c2oc3c(CC=C(C)C)c(OC4O[C@H](CO)[C@@H](O)[C@H](O)[C@H]4O)cc(O)c3c(=O)c2OC2O[C@@H](C)[C@H](O)[C@@H](O)[C@H]2O)cc1 (stereo partly drawn)")
"F"
